// data source = paper PMC12298815

Assay: In vivo pharmacokinetics in rats
Conditions: plasma; rat, oral, DT 10 mg/kg
Protocol: Pharmacokinetic parameters were calculated using a non-compartmental analysis model with WinNonlin® software version 5.3 (Pharsight Corp., Mountain View, CA, USA). All quantitative data are presented as mean ± standard deviation (SD) or standard error of the mean (SEM), as indicated. Statistical analyses were performed using one-way analysis of variance (ANOVA) to assess differences among groups, followed by Tukey’s post hoc test for multiple comparisons. […]
Reported Metric: Tmax (h)
// note: answer is a bare numeric in h

// query Returns the measured Tmax for the input compound. Input: CC(=O)O[C@@]12CO[C@@H]1C[C@H](O)[C@@]1(C)C(=O)[C@H](O)C3=C(C)[C@@H](OC(=O)[C@H](O)[C@@H](NC(=O)OC(C)(C)C)c4ccccc4)C[C@@](O)([C@@H](OC(=O)c4ccccc4)[C@H]21)C3(C)C
// result 8
